test system: PXR homodimer (NR concentration 270 nM); assay: PBM binding z-score (relative to random genomic background probes); higher = stronger binding; sequences stand for … in GC…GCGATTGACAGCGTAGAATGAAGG
result_type: PBM binding z-score

# seq_text, recorded_result
measured = [
    ("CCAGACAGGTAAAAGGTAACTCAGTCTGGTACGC", 0.0427),
    ("GCGACTGGGGCAAAGCAGGTTACCACAAGGTTGG", -0.466),
    ("CCTATTAGTTAACCATAAGGGCAACCGAAGCTCG", 0.723),
    ("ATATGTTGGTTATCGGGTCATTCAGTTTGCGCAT", 7.6),
    ("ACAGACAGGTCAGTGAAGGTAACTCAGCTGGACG", -0.149),
    ("ATCTCTAGGTATCAAGTTCAGTGAAAGAGAGGAC", 2.18),
    ("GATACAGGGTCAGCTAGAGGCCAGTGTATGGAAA", 0.17),
    ("AGAATGATGTTATACGTAGATCAGGGAAGAAAGT", 0.403),
    ("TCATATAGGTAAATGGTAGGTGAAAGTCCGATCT", 0.669),
    ("CAAACTAGGTCACCGGAAGTTCAAAGTCCGCATG", 6.26),
    ("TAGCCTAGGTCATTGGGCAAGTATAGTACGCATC", -0.337),
    ("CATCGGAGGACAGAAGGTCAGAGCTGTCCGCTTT", -0.438),
    ("AGAACGAGGGCAATGAGTTGATGGCACGGGTGGC", 3.75),
    ("ACTAGCAGGCCAAGGGTCACTTAAGATTAGTCCG", -0.0435),
    ("CCGACTGGGGCAGAAAGGTTGCCATACCATCCGG", -0.699),
    ("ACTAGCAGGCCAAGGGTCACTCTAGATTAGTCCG", -0.367),
    ("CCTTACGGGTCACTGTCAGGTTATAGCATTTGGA", -0.056),
    ("CAAACTTGGTCACCGGAAGGTCAAAGTCCGCATG", 1.08),
    ("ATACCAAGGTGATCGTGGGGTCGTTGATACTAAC", 1.11),
    ("ACAGACAGGTTATGAAGGTAACTCAGGCTATCAT", 0.271),
    ("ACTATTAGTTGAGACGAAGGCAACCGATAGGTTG", -0.243),
    ("CGAACTATGTCAGAACAGGACAGTGAAGGATGAT", 0.0805),
    ("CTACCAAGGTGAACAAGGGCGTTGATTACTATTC", -0.0327),
    ("CGTCCAAGGTCCGCAGGTCAGTGAAAGCGACGTG", -0.304),
    ("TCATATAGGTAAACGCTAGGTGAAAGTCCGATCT", 0.4),
    ("CGTCCAAGGTCAAAGGTCGGTGAAGAGATGACGG", 0.774),
]

* * *

test system: RARa:RXR (NR concentration 270 nM, RXRa partner concentration 90 nM); experiment: PBM binding z-score (relative to random genomic background probes); higher = stronger binding; sequences stand for … in GC…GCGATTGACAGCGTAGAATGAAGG
Please enter 1 (yes) where PBM binding z-score is greater than or equal to 1, and 0 (no) where it is lower.

# seq_text, measured_target, cat
rows = [
    ("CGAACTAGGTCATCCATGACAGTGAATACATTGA", "RARa:RXR (NR concentration 270 nM, RXRa partner concentration 90 nM)", "1 (yes)"),
    ("CCTTACCGGTCACTCCAGGTTATAGCATCGGAGT", "RARa:RXR (NR concentration 270 nM, RXRa partner concentration 90 nM)", "1 (yes)"),
    ("CCGACTGGAGCAGAAAGGTTACCATACCATCCGG", "RARa:RXR (NR concentration 270 nM, RXRa partner concentration 90 nM)", "1 (yes)"),
    ("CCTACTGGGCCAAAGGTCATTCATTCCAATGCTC", "RARa:RXR (NR concentration 270 nM, RXRa partner concentration 90 nM)", "1 (yes)"),
    ("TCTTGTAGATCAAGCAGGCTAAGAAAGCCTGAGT", "RARa:RXR (NR concentration 270 nM, RXRa partner concentration 90 nM)", "0 (no)"),
    ("GGAACGAGGGCAAGTTGATTGCAGAGTTTGATGG", "RARa:RXR (NR concentration 270 nM, RXRa partner concentration 90 nM)", "0 (no)"),
    ("CTCGAAAGGTCGGTTGAAGTGAGTATACGGATAA", "RARa:RXR (NR concentration 270 nM, RXRa partner concentration 90 nM)", "1 (yes)"),
    ("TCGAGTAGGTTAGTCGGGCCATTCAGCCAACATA", "RARa:RXR (NR concentration 270 nM, RXRa partner concentration 90 nM)", "0 (no)"),
    ("TCTGCTAGGTCAGTAGGTCAGCTAACGAGCTGCC", "RARa:RXR (NR concentration 270 nM, RXRa partner concentration 90 nM)", "1 (yes)"),
    ("GCAGACAGGTGAAACGCAAGTAACTCAGGGTGGC", "RARa:RXR (NR concentration 270 nM, RXRa partner concentration 90 nM)", "0 (no)"),
    ("CCTGCTAGGTCATGGTCAGTTAATCTACAGTATG", "RARa:RXR (NR concentration 270 nM, RXRa partner concentration 90 nM)", "1 (yes)"),
]

Source listed as the supplement of paper PMC6555819.
